# measurement_target: Toll-like receptor 7/8 (Canis lupus familiaris) (UniProt A1XC23+H6BA89)
# experiment: Agonist activity at TLR7/8 in dog PBMC assessed as IL-12 secretion at 20 uM after 29 hrs by ELISA (reference value: 18 +/- 8 pg/ml)
# Assay type: cell-based
experimental_readout: Activity (pg/mL)
Give your result in pg/mL as a bare value.

# count of solved cases: 10
chemical_string	experimental_readout	recorded_value
CCCCc1nc2c(N)nc3cc(C#N)ccc3c2n1CC(C)C	Activity	920
CCCCc1nc2c(N)nc3cc(O)ccc3c2n1CC(C)C	Activity	102
CCCCc1nc2c(N)nc3cc(C#N)ccc3c2n1CC(C)(C)O	Activity	418
CCOCc1nc2c(N)nc3cc(C#N)ccc3c2n1CC(C)(C)O	Activity	13
CCCCc1nc2c(N)nc3cc(OC)ccc3c2n1CC(C)C	Activity	746
CCCCc1nc2c(N)nc3cc(OC)ccc3c2n1CC(C)(C)O	Activity	2000
CCOCc1nc2c(N)nc3cc(C#N)ccc3c2n1CC(C)C	Activity	190
CCCCc1nc2c(N)nc3cc(Cl)ccc3c2n1CC(C)C	Activity	760
CCOCc1nc2c(N)nc3cc(Cl)ccc3c2n1CC(C)(C)O	Activity	1900
CCCCc1nc2c(N)nc3cc(Cl)ccc3c2n1CC(C)(C)O	Activity	1700

Looking up CC(C)Cn1cnc2c(N)nc3ccccc3c21 , I found its Activity recorded as 1200

Looking up CCOCc1nc2c(N)nc3ccccc3c2n1CC(C)(C)O , I found its Activity recorded as 2800

Looking up CCOCc1nc2c(N)nc3cc(Cl)ccc3c2n1CC(C)C , I found its Activity recorded as 781

----------
# measurement_target: Toll-like receptor 7/8 (Canis lupus familiaris) (UniProt A1XC23+H6BA89)
# experiment: Agonist activity at TLR7/8 in dog PBMC assessed as IL-2 secretion at 20 uM after 29 hrs by ELISA (reference value: 47 +/- 20 pg/ml)
# Type: cell-based
experimental_readout: Activity (pg/mL)
Give your result in pg/mL as a bare value.

# count of solved cases: 3
chemical_string	measurement_target	experimental_readout	result_units	recorded_value
CCOCc1nc2c(N)nc3cc(Cl)ccc3c2n1CC(C)C	Toll-like receptor 7/8 (Canis lupus familiaris) (UniProt A1XC23+H6BA89)	Activity	pg/mL	50
CC(C)Cn1cnc2c(N)nc3ccccc3c21	Toll-like receptor 7/8 (Canis lupus familiaris) (UniProt A1XC23+H6BA89)	Activity	pg/mL	85
CCOCc1nc2c(N)nc3cc(C#N)ccc3c2n1CC(C)C	Toll-like receptor 7/8 (Canis lupus familiaris) (UniProt A1XC23+H6BA89)	Activity	pg/mL	57

Toll-like receptor 7/8 (Canis lupus familiaris) (UniProt A1XC23+H6BA89) data for CCOCc1nc2c(N)nc3cc(Cl)ccc3c2n1CC(C)(C)O ; its Activity: 76

Toll-like receptor 7/8 (Canis lupus familiaris) (UniProt A1XC23+H6BA89) data for CCCCc1nc2c(N)nc3cc(OC)ccc3c2n1CC(C)C ; its Activity: 30

Toll-like receptor 7/8 (Canis lupus familiaris) (UniProt A1XC23+H6BA89) data for CCOCc1nc2c(N)nc3ccccc3c2n1CC(C)(C)O ; its Activity: 120

Toll-like receptor 7/8 (Canis lupus familiaris) (UniProt A1XC23+H6BA89) data for CCCCc1nc2c(N)nc3cc(C#N)ccc3c2n1CC(C)(C)O ; its Activity: 45

Toll-like receptor 7/8 (Canis lupus familiaris) (UniProt A1XC23+H6BA89) data for CCCCc1nc2c(N)nc3cc(Cl)ccc3c2n1CC(C)(C)O ; its Activity: 55

Toll-like receptor 7/8 (Canis lupus familiaris) (UniProt A1XC23+H6BA89) data for CCCCc1nc2c(N)nc3cc(O)ccc3c2n1CC(C)C ; its Activity: 79

Toll-like receptor 7/8 (Canis lupus familiaris) (UniProt A1XC23+H6BA89) data for CCCCc1nc2c(N)nc3cc(Cl)ccc3c2n1CC(C)C ; its Activity: 63

Toll-like receptor 7/8 (Canis lupus familiaris) (UniProt A1XC23+H6BA89) data for CCCCc1nc2c(N)nc3cc(C#N)ccc3c2n1CC(C)C ; its Activity: 60

Toll-like receptor 7/8 (Canis lupus familiaris) (UniProt A1XC23+H6BA89) data for CCCCc1nc2c(N)nc3cc(OC)ccc3c2n1CC(C)(C)O ; its Activity: 82

Toll-like receptor 7/8 (Canis lupus familiaris) (UniProt A1XC23+H6BA89) data for CCOCc1nc2c(N)nc3cc(C#N)ccc3c2n1CC(C)(C)O ; its Activity: 46
